experiment: Toxicity liver stage against HepG2, at 10uM
Format: cell-based
Set-up: test concentration 10 uM, cell line HepG2-A16-CD81EGFP
condition_summary: human, HepG2-A16-CD81EGFP cells; read-out: INHIBITION
Here, each record is paired with measured cytotoxicity at 10 µM data.

# compound, cytotoxicity at 10 µM (%)
measured = [
    ("c1cnc(NC[C@H]2OC[C@@H]3CCN(Cc4ccsc4)C[C@@H]32)nc1", -2.01),
    ("Cc1cc(O)c(OCC(=O)/N=c2/[nH]c3c(s2)CCC3)cn1", 10.4),
    ("CC(C)c1ccc(/C=C/CC(=O)NC2CCN(C(N)=O)C2)cc1 (centres undefined)", 0.838),
    ("Cn1c(=O)c2cc(C(=O)NCCOc3ccccc3)ccc2n(C)c1=O", -4.69),
    ("CN1CCC2(COCc3cnc(-c4ccccc4)nc32)C1 (centres undefined)", -1.5),
    ("Cc1oc(C)c(C(=O)NS(=O)(=O)c2ccc3c(c2)OCCCO3)c1C", 6.08),
    ("Cc1nn(C)c2c(NCc3ccccn3)ncnc12", -5.2),
    ("CC(=O)c1ccc(C(=O)NCC2Cc3ccccc3O2)s1 (centres undefined)", 3.82),
    ("Cc1ncc(CNCC(=O)NCC(F)(F)F)n1-c1ccccc1", 5.57),
    ("Cc1cc(C(=O)N2CCCN(Cc3nccn3C(C)C)CC2)no1", -2.72),
    ("Cc1nnc(CN(C)CC(=O)N2CCCC(C)CC2)n1C (centres undefined)", 10.6),
    ("Cc1ccc2nc(NCCN3CCOCC3)n(C)c(=O)c2c1", 9.26),
    ("CS(=O)(=O)N1CCC2(CCN(C(=O)c3cccnc3)CC2)C1", 3.59),
    ("O=C(N[C@@H]1CN[C@H]2CCCO[C@H]21)c1cccnc1", 5.25),
    ("O=C(c1onc2ccccc12)N1CCC2(CCCNC2)C1 (centres undefined)", -1.05),
    ("Cc1ncccc1CNC1CCCN(Cc2noc(C3CC3)n2)C1 (centres undefined)", -1.34),
    ("Cc1cnn(CCNCc2nc(COc3ccc(F)cc3)no2)c1", -5.61),
    ("CC(C)(C)n1cc(C2=CCN(CCNC(N)=O)CC2)cn1", -3.51),
    ("COc1cccc(-n2c(C)cc(C(=O)NS(C)(=O)=O)c2C)c1", -6),
    ("CSCc1cccc(S(=O)(=O)NCCCN2CCOCC2)c1", -8.63),
    ("CCCNc1ccc(C(=O)NCCc2ccc(Cl)cc2)cn1", -1.05),
    ("CN(C)S(=O)(=O)N1CCC(Oc2ccccn2)CC1", 13.6),
    ("COc1c(C2CCCN2C(=O)c2sc(C)nc2C)c(C)nn1C (centres undefined)", 3.62),
    ("O=C(NCC1CC[C@@H]2[C@@H]1OCCN2Cc1cccs1)c1ccco1 (some centres undefined)", 3.23),
]

====

experiment: Toxicity liver stage against HepG2, at 10uM
Assay type: cell-based
Parameters: test concentration 10 uM, cell line HepG2-A16-CD81EGFP
condition_summary: human, HepG2-A16-CD81EGFP cells; read-out: INHIBITION
readout_kind: cytotoxicity at 10 µM (%)

# molecule, recorded_value
measured = [
    ("Cc1cc(CNC2(c3ccccc3)CCCCC2)on1", 0.643),
    ("CC(C)c1nnc2n1CCN(C(=O)c1ccc(OCC(N)=O)cc1)C2", -4.84),
    ("CCc1ncc(CN2CCCC3(CCC(=O)N(CCC(C)C)C3)C2)cn1 (stereo unspecified)", -7.66),
    ("c1cncc(-c2ncnc3c2CCN(Cc2cccs2)CC3)c1", 19.9),
    ("Cc1ccc(-c2c[nH]c([C@@H]3COCCN3Cc3cccnc3)n2)cc1", 0.283),
    ("CN(C)C(=O)c1cccc(CN2CCN(CC(O)C(C)(C)C)CC2)c1 (stereo unspecified)", 1.74),
]
